Parameter activation: see the listing below.
# systemTested: 5-hydroxytryptamine receptor 2A (Mus musculus) (UniProt P35363)
# Sequence (P35363 whole entry, looked up): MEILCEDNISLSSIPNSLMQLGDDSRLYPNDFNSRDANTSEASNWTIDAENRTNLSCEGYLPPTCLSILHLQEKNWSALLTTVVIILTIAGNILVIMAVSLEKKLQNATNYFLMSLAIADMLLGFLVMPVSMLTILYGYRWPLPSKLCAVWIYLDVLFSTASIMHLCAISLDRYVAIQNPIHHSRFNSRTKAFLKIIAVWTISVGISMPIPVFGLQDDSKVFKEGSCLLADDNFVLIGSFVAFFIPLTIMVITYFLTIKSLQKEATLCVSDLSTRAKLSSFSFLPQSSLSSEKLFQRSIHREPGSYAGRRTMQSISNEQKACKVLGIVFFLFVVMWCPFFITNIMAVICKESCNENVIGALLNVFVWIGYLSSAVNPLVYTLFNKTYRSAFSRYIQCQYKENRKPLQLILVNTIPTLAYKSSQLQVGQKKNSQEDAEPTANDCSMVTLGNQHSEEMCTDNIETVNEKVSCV
# protocol: agonist activity at mouse 5-HT2A receptor – cell-based, luminescence, CHO-K1 PathHunter, triplicate, confirmation (AID 624381)
# conditionDetails: CHO-K1 PathHunter beta-arrestin recruitment, at 7.6 µM, stronger effect = higher value, DMSO 0%, 30 µM serotonin 100%
Out of some 2,300 compounds screened, about 430 (19%) were called active. These entries were drawn from the full list.

For the molecule shown here, Cc1cccc(CN2CCN(C3CN(Cc4ccccc4)S(=O)(=O)C3)CC2)c1 (stereo not given) , give the reported activation.
8.09% (inactive)

For the molecule shown here, "COc1ccc2c(Cl)c(-c3nnco3)sc2c1" , give the reported activation.
-2.25% (inactive)

For the molecule shown here, Cc1ccc2c(c1)NCC(C(=O)NC1CCC(C)CC1)O2 (stereo not given) , give the reported activation.
-3.96% (inactive)

For the molecule shown here, "CCn1cc(C(=O)OCC(=O)Nc2cccc(C)c2)c(=O)c2ccc(C)nc21" , give the reported activation.
-1.9% (inactive)

For the molecule shown here, "O=C1CCc2cc(S(=O)(=O)N3CCC(C(=O)NCc4ccccc4Cl)CC3)ccc2N1" , give the reported activation.
-6.01% (inactive)

---

# systemTested: 5-hydroxytryptamine receptor 2A (Mus musculus)
# protocol: agonist activity at mouse 5-HT2A receptor – cell-based, luminescence, CHO-K1 PathHunter, triplicate, confirmation (AID 624381)
# conditionDetails: CHO-K1 PathHunter beta-arrestin recruitment, at 7.6 µM, stronger effect = higher value, DMSO 0%, 30 µM serotonin 100%
Out of some 2,300 compounds screened, about 430 (19%) were called active. These entries were drawn from the full list.
quantity: activation (%)
Only the number, expressed in %, is required.

Here is how some molecules turned out for activation.
INSERT INTO assay_data (molecule, quantity, experimentalresult) VALUES
  ('Cc1ccc(NC(=O)CSc2nnc(COc3ccccc3C)o2)cc1', 'activation', -4.47),
  ('COc1ccc(C(C)=O)cc1COC(=O)Cn1cnc2ccccc2c1=O', 'activation', 2.93),
  ('CC(C)Oc1ccccc1C(=O)NC(CO)C(=O)O (stereo not drawn)', 'activation', 0.21);

For the molecule shown here, "CN(C)[C@@H]1C(=O)C(C(N)=O)=C(O)[C@@]2(O)C(=O)C3=C(O)c4c(O)ccc(Cl)c4[C@@H](O)[C@H]3C[C@@H]12" , give the reported activation.
40.1

For the molecule shown here, "Cc1ccc(S(=O)(=O)N2CCN(c3ncnc4ccccc34)CC2)cc1" , give the reported activation.
9.56

For the molecule shown here, "O=C(COC(=O)c1cc(S(=O)(=O)N2CCOCC2)ccc1F)NC1CC1" , give the reported activation.
-1.03

For the molecule shown here, "O=C(Nc1cc(=O)[nH]c2ncnn12)c1ccccc1Cl" , give the reported activation.
-5.17

For the molecule shown here, CCOc1ccc(/C(O)=C2\C(=O)C(=O)N(c3ccc(OC)cc3)C2c2ccccc2[N+](=O)[O-])cc1 (stereo not drawn) , give the reported activation.
1.71

For the molecule shown here, "COc1cccc(OC)c1OCCN1CCN(C(=O)c2ccco2)CC1" , give the reported activation.
78.4

For the molecule shown here, "CCOCCCNC(=O)Cc1cc(=O)[nH]c(=O)[nH]1" , give the reported activation.
-1.89

---

# systemTested: 5-hydroxytryptamine receptor 2A (Mus musculus)
# protocol: agonist activity at mouse 5-HT2A receptor – cell-based, luminescence, CHO-K1 PathHunter, triplicate, confirmation (AID 624381)
# conditionDetails: CHO-K1 PathHunter beta-arrestin recruitment, at 7.6 µM, stronger effect = higher value, DMSO 0%, 30 µM serotonin 100%
Among all 2,300 compounds or so, about 430 (19%) were called active. Only a sample is shown.
quantity: activation

Here is how some compounds turned out for activation.
INSERT INTO results (compound, experimentalresult) VALUES
  ('FC(F)(F)COc1nc(N2CCCCC2)nc(N2CCNCC2)n1', '8.3% (inactive)'),
  ('CCOC(=O)/C=c1\s/c(=C\c2ccccc2OC)c(=O)n1CC(=O)N1CCOCC1', '-3.42% (inactive)');

# returns recorded activation (system: 5-hydroxytryptamine receptor 2A (Mus musculus)) for "CCCCn1c(N)c(N(CC(C)C)C(=O)CSc2ccc([N+](=O)[O-])cc2)c(=O)[nH]c1=O"
0.81% (inactive)

# returns recorded activation (system: 5-hydroxytryptamine receptor 2A (Mus musculus)) for "COc1ccc(CNC(=O)c2ccc(NS(=O)(=O)c3ccc4[nH]c(=O)[nH]c4c3)cc2)cc1OC"
-3.98% (inactive)

---

# systemTested: 5-hydroxytryptamine receptor 2A (Mus musculus) (UniProt P35363)
# protocol: agonist activity at mouse 5-HT2A receptor – cell-based, luminescence, CHO-K1 PathHunter, triplicate, confirmation (AID 624381)
# conditionDetails: CHO-K1 PathHunter beta-arrestin recruitment, at 7.6 µM, stronger effect = higher value, DMSO 0%, 30 µM serotonin 100%
The whole screen tested about 2,300 compounds, of which about 430 (19%) were called active. Not all results are given here.
Parameter activation: see the listing below.
Only the number, expressed in %, is required.

INSERT INTO results (compound, quantity, scaleunit, experimentalresult) VALUES
  ('O=C(c1ccncc1)N1CCN(c2ccc3ccccc3n2)CC1', 'activation', '%', 17.1);

Here is the next item to consider.
For the compound shown here, "Cc1ccc2nc(-c3ccncc3)cc(C(=O)Nc3ccncc3)c2c1" , give the reported activation.
12.6

---

# systemTested: 5-hydroxytryptamine receptor 2A (Mus musculus) (UniProt P35363)
# protocol: agonist activity at mouse 5-HT2A receptor – cell-based, luminescence, CHO-K1 PathHunter, triplicate, confirmation (AID 624381)
# conditionDetails: CHO-K1 PathHunter beta-arrestin recruitment, at 7.6 µM, DMSO 0%, 30 µM serotonin 100%
The campaign covered roughly 2,300 compounds. About 430 (19%) were called active.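 Rule for the calls: active = mean activation across triplicates above the hit threshold derived in the original primary screen (cut at about 15% in these data); inactive = the rest.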 These entries were drawn from the full list.
Respond using exactly one of the listed classes: yes = active, no = inactive

INSERT INTO measurements (compound, assignedlabel) VALUES
  ('Cc1cc([N+](=O)[O-])ccc1NC1CCCC1', 'no');

Hey, what did the test say about "O=C(Cc1ccccc1)n1nc(-c2ccccc2)nc1NCc1ccco1" ?
no

Hey, what did the test say about "CSc1nsc(SCC(=O)Nc2cc(C(=O)O)ccc2C)n1" ?
no

Hey, what did the test say about "CS(=O)(=O)c1ccc2nc(NC(=O)C3CCCCC3)sc2c1" ?
no

Hey, what did the test say about "CCOC(=O)c1ccc(NC(=O)Cn2cnc3cc(C)c(C)cc32)cc1" ?
no

Hey, what did the test say about "Cc1cc(C(=O)OCC(=O)N2c3ccccc3NC(=O)C2(C)C)c(C)n1-c1ccccc1" ?
no

---

Parameter activation: see the listing below.
# systemTested: 5-hydroxytryptamine receptor 2A (Mus musculus) (UniProt P35363)
# protocol: agonist activity at mouse 5-HT2A receptor – cell-based, luminescence, CHO-K1 PathHunter, triplicate, confirmation (AID 624381)
# conditionDetails: CHO-K1 PathHunter beta-arrestin recruitment, at 7.6 µM, stronger effect = higher value, DMSO 0%, 30 µM serotonin 100%
The whole screen tested about 2,300 compounds, of which about 430 (19%) were called active. Not all results are given here.
Only the number, expressed in %, is required.

Here is how some molecules turned out for activation.
INSERT INTO measurements (molecule, systemtested, scaleunit, experimentalresult) VALUES
  ('COC(=O)Cn1nc(-c2ccccc2)c2cc(Cl)ccc21', '5-hydroxytryptamine receptor 2A (Mus musculus) (UniProt P35363)', '%', -5.87),
  ('CCCC(=O)N=c1sc2cccc(F)c2n1C', '5-hydroxytryptamine receptor 2A (Mus musculus) (UniProt P35363)', '%', -2.76),
  ('N/C(=N\S(=O)(=O)c1cc(C(F)(F)F)cc(C(F)(F)F)c1)c1cccs1', '5-hydroxytryptamine receptor 2A (Mus musculus) (UniProt P35363)', '%', -1.99);

For the molecule shown here, CCCN(CCc1ccccc1)C1CCc2c(O)cccc2C1 (stereo unspecified) , give the reported activation.
164

For the molecule shown here, CC(=O)N1c2ccc(S(=O)(=O)N3CCC(C(=O)NC4CCCCC4C)CC3)cc2CC1C (stereo unspecified) , give the reported activation.
-5.72

For the molecule shown here, O=C(O)C1C2C=CC(O2)C1C(=O)NCCc1cccc(Cl)c1 (stereo unspecified) , give the reported activation.
4.65

---

# systemTested: 5-hydroxytryptamine receptor 2A (Mus musculus)
# protocol: agonist activity at mouse 5-HT2A receptor – cell-based, luminescence, CHO-K1 PathHunter, triplicate, confirmation (AID 624381)
# conditionDetails: CHO-K1 PathHunter beta-arrestin recruitment, at 7.6 µM, stronger effect = higher value, DMSO 0%, 30 µM serotonin 100%
Hit rate of the full screen: of about 2,300 compounds, about 430 (19%) were called active. These entries were drawn from the full list.
Parameter activation: see the listing below.

INSERT INTO measurements (compound, experimentalresult) VALUES
  ('Fc1ccc2[nH]c3c(N4CCSCC4)ncnc3c2c1', '3.26% (inactive)');

For the compound shown here, Cc1cccc(CN2CCN(C3CN(Cc4cn(Cc5cc(C)cc(C)c5)nn4)S(=O)(=O)C3)CC2)c1 (centres undefined) , give the reported activation.
8.35% (inactive)

For the compound shown here, "COC(=O)c1cc(N2CCNCC2)nc2ccccc12" , give the reported activation.
2.65% (inactive)

For the compound shown here, Cc1cccnc1C(NC(=O)C1CCN(Cc2ccc(Cl)c(Cl)c2)CC1)c1ccc(Cl)cc1 (centres undefined) , give the reported activation.
-7.94% (inactive)

For the compound shown here, "NNc1cccc(C=Cc2ccccc2)cc1=O" , give the reported activation.
1.74% (inactive)

For the compound shown here, "CCn1c(SCC(=O)N2CCCC2=O)nc2ccccc21" , give the reported activation.
-2.49% (inactive)

For the compound shown here, "Cc1cc(C)n(S(=O)(=O)c2cccc([N+](=O)[O-])c2)n1" , give the reported activation.
-4.03% (inactive)

For the compound shown here, "COCCN(Cc1cc2cc3c(cc2nc1Cl)OCO3)C(=O)c1cccc(C)c1" , give the reported activation.
3.25% (inactive)

For the compound shown here, "COC(=O)c1ccc(CSc2nnc(NC(C)C)s2)cc1" , give the reported activation.
-5.43% (inactive)
